TGI listing for selected compounds.
- System: HCT-116 colon
- assay.text: NCI tumour cell line growth inhibition, 48 h

> print(dat)
                                   compound  value.reported
1  NCC(=O)NC(CO)C(=O)O (configuration not stated)        > 100 µM
2  CN1CCc2cc(O)c3cc2C1Cc1ccc(cc1)Oc1cc(ccc1O)CC1c2c(cc4c(c2O3)OCO4)CCN1C (configuration not stated)        > 100 µM
3  N#C/C(=C\c1ccc([N+](=O)[O-])s1)c1nc2cc(Br)ccc2s1        0.388 µM

Lookup: Look up TGI: CC(=O)Nc1ccc(S(=O)(=O)c2ccc(NC(C)=O)cc2)cc1
Found: > 100 µM

Lookup: Next record, please: Cc1cccc2c1NC(=O)C2(c1ccc(O)cc1)c1ccc(O)cc1
Found: 25.5 µM

Lookup: Check O=C1CCCCCCCCCCC1CN(Cc1ccccc1)Cc1ccccc1 (configuration not stated) too.
Found: 55.9 µM

Lookup: Would you kindly repeat that for Cc1ccc(-c2n[nH]c(=O)n2N2C(=O)C=CC2=O)cc1 ?
Found: > 100 µM

Lookup: Then this compound: Cc1cn(C2CC(N=[N+]=[N-])C(C(=O)O)O2)c(=O)[nH]c1=O (configuration not stated)
Found: > 100 µM

Lookup: Can you check O=c1c2ccccc2n2n1Cc1ccccc1C2 next?
Found: > 100 µM

Lookup: Continue with CC(=O)OC(C#N)CC(C)(C)/[N+]([O-])=[N+](\[O-])C(C)(C)CC(C#N)OC(C)=O (configuration not stated)
Found: 20.9 µM

Lookup: Cool, now Cc1cccc(Nc2nc(NNC(=O)Cc3ccccc3)nc(NNC(=O)c3ccncc3)n2)c1
Found: > 10 µM

Lookup: Repeat with N#Cc1nc(C2SCCCS2)oc1N
Found: > 100 µM

Lookup: # repeat for COc1cc(O)c2c(c1O)C(=O)c1cc(C)ncc1C2=O
Found: > 50 µM

Lookup: Okay, and [O]=[W](=[O])([OH])[OH] ?
Found: > 100 µM

Lookup: Do the same for CC(C)N(C(=O)C12C3C4C5C3C1(C#N)C5C42)C(C)C (configuration not stated) please
Found: > 100 µM

* * *

- System: RPMI-8226 leukemia
- assay.text: NCI tumour cell line growth inhibition, 48 h; in the data active means GI50 below about 0.43 µM; inactive means the rest
Returns: one label drawn from active, inactive

Example entries begin here.
compound	label
C(=C\c1nc2ccccc2s1)/c1ccc(N2CCOCC2)s1	inactive
CCC[CH2][Ge]([CH2]CCC)([CH2]CCC)[O]C(=O)C(OC(C)=O)c1ccccc1 (configuration not stated)	active
O=C(Nc1cccc(-n2cc(-c3ccncc3)c(-c3ccc(O)c(Cl)c3)n2)c1)c1ccc(N2CCOCC2)c(C(F)(F)F)c1	inactive
CNC(=O)c1c(NC(=O)c2ccc(C(C)C)cc2)sc2c1CCC(=O)C2	active
CC(=O)OC1CC(C)c2c(Cl)ncnc21 (configuration not stated)	inactive

Lookup: Please state the recorded outcome for this compound: CNc1ccc(C(=O)CC(O)CCC(C)C2OC(=O)CC(O)CC(=O)CC(O)CC(O)CC(O)CC(O)CC3(O)CC(O)C(C(=O)NCCc4ccccn4)C(CC(OC4OC(C)C(O)C(N)C4O)/C=C/C=C/C=C/C=C\C=C/C=C/C=C/C2C)O3)cc1 (configuration not stated)
Found: inactive

Lookup: # iterate: O=C(Nc1ccc(O)c(NS(=O)(=O)c2ccc(F)cc2)c1)c1ccc(-c2ccccc2)cc1
Found: inactive

Lookup: Now this one: O=C1C(Cl)=C(Nc2ccccn2)C(=O)c2ccccc21
Found: inactive

* * *

- Test system: KM12 colon
- assay.text: NCI tumour cell line growth inhibition, 48 h
Reported TGI values for the following molecules.

molecule	TGI
Cc1cn2c(/C=N/N=C(N)N)c(-c3cc(Cl)sc3Cl)nc2s1	1.59 µM
O=C(Nn1c(-c2ccccc2)nc2ccccc2c1=O)c1ccc(O)cc1	> 100 µM
C=CCCC(O)c1ccc(CCCCCCCCCCC)o1 (stereo unspecified)	51 µM
COc1cc(CCNc2nc3cc(N)cc(N)c3nc2-c2ccccc2)cc(OC)c1	3.54 µM
O=C1C=C(NCCc2cc(Cl)c(O)c(Cl)c2)C(=O)c2[nH]cnc21	> 100 µM
CC(=O)OC1CC(C)c2c(Cl)ncnc21 (stereo unspecified)	> 100 µM
Cc1ccc2nc(CC(=O)c3ccc4ccccc4c3)c(=O)[nH]c2c1	> 100 µM
O=C(NCCCCCCNC(=O)NC1OCC(O)C(O)C1O)NC1OCC(O)C(O)C1O (stereo unspecified)	> 100 µM
COC(=O)C(C(=O)C(=O)Nc1ccc([N+](=O)[O-])cc1)c1nc2cc(C)c(C)cc2[nH]c1=O (stereo unspecified)	> 100 µM
CC1=C2[C@@H](c3ccccc3)C3C=CC2(c2ccccc23)N(C(=O)Nc2cccc3ccccc23)C1=O (stereo partly specified)	> 100 µM

Lab note: next molecule to report on.
Lookup: Data request, read-out TGI, for COC(=O)C1=C(OC(=O)/C(=C/c2c(F)cccc2F)c2ccccc2)C(C(=O)OC)[C@@]2(O)[C@@H](C(=O)OC)[C@H](C)C[C@@H]1[C@@H]2C(=O)OC (stereo partly specified)
Found: > 100 µM

* * *

- Tested on: SK-OV-3 ovarian
- assay.text: NCI tumour cell line growth inhibition, 48 h
endpoint.name: TGI

These recorded examples may help you get a feel for the data.
> print(dat)
                                   compound     assay.target  endpoint.name  value.reported
1  COc1ccc(N2C(=O)C3c4[nH]c5cc(Cl)ccc5c4C4CCC(C(C)(C)C)CC4C3C2=O)cc1 (configuration not stated)  SK-OV-3 ovarian            TGI        > 100 µM
2  O=C1CCCC(=O)C1C(=O)c1ccc(C(F)(F)F)cc1[N+](=O)[O-]  SK-OV-3 ovarian            TGI        > 100 µM
3        O=C1c2ccccc2-n2c1nc1cc(Cl)ccc1c2=O  SK-OV-3 ovarian            TGI        > 100 µM

Lookup: What TGI appears in the records for this compound with SK-OV-3 ovarian? O=C(O)C1CCCCC1C(=O)Nc1nc2ccccc2[nH]1 (configuration not stated)
Found: > 100 µM

Lookup: And Cc1ccc(C2SC(N)=Nc3c2c(C)nn3C(=O)c2ccc(Cl)cc2)cc1 (configuration not stated) ?
Found: > 10 µM

Lookup: Repeat with COc1cc([N+](=O)[O-])c(OC)cc1-c1nc2n(c1/C(N)=N/C(=N)N)CCS2
Found: > 100 µM

Lookup: Request: Cc1[nH]c2ccccc2c1C1=CC(=O)C=CC1=O
Found: 33.5 µM

Lookup: Try this compound next: Clc1ccc2c(Cl)nc(-c3ccccc3)nc2c1
Found: 62.3 µM

* * *

- Tested on: CCRF-CEM leukemia
- assay.text: NCI tumour cell line growth inhibition, 48 h; in the data active means GI50 below about 0.43 µM; inactive means the rest
Thanks in advance; please answer with one of these: active, inactive

See these solved cases before continuing.
> print(dat)
                                smiles.repr     label
1  CC(=O)Nc1ccc(S(=O)(=O)c2ccc(NC(C)=O)cc2)cc1  inactive
2  O=C(Nc1cccc(-n2cc(-c3ccncc3)c(-c3ccc(O)c(Cl)c3)n2)c1)c1ccc(N2CCOCC2)c(C(F)(F)F)c1  inactive

Lookup: Which outcome was entered for the compound COC(=O)c1cc(NC(=O)CN(CCN(CC(=O)O)CC(=O)Nc2ccc(O)c(C(=O)OC)c2)CC(=O)O)ccc1O in this test?
Found: inactive

Lookup: Cool, now CS(=O)(=O)c1ccc(-c2[nH]c3ccc(F)cc3c2/C=N/NC(N)=S)cc1
Found: active

Lookup: Proceed to O=C(Nc1ccc(O)c(NS(=O)(=O)c2ccc(F)cc2)c1)c1ccc(-c2ccccc2)cc1
Found: inactive

Lookup: Thanks! And CNC(=O)c1c(NC(=O)c2ccc(C(C)C)cc2)sc2c1CCC(=O)C2 ?
Found: active

Lookup: // query: O=C1C(Cl)=C(Nc2cccc(O)c2)C(=O)N1c1ccc(Cl)cc1Cl
Found: inactive

Lookup: Next up: Cc1cn2c(/C=N/N=C(N)N)c(-c3cc(Cl)sc3Cl)nc2s1
Found: inactive

Lookup: Ok, now O=c1cc(-c2ccccc2)nc2cc(-c3ccco3)[nH]n12
Found: inactive

* * *

TGI: recorded values
- System: NCI-H460 lung
- assay.text: NCI tumour cell line growth inhibition, 48 h
Give the quantity in µM, number only.

molecule	unit.annotation	TGI
C=C(CN(C)C)C(=O)c1ccc(OC)cc1	µM	44.6
Cc1cccc2c1NC(=O)C2(c1ccc(O)cc1)c1ccc(O)cc1	µM	40.8
C[CH2][Sn]([Cl])([CH2]C)[CH2]C	µM	5.44

Lookup: Given the entry Cc1cc(=O)[nH]c(NN2C(Cl)C(=O)C2c2c(O)ccc3ccccc23)n1 (stereo not given) , report its measured TGI.
Found: 29.6

Lookup: Continue with COc1ccc2cc(C(=O)/C=C/c3ccco3)ccc2c1
Found: 52.6
